- experimentalTarget: EGFR on the cell surface (Huh-7, U87MG, MDA-MB-231) (human) (UniProt P00533)
- measurementDescription: flow cytometry
- conditionsUsed: MDA-MB-231 cells, 2'-OMe on U, G, C, all A (positions 8, 14, 19, 21, 24) are DNA, Binding buffer: serum-free DMEM + 100 ug/mL tRNA, aptamers denatured 95 C 5 min, snap cooled on ice 10 min, ELONA 1 h (temperature not given)
pKd: −log10 of the molar value.
assayEndpoint: pKd

# sequenceRecord, readoutValue
data = [
    ("UGCUUUGAUGUCGAUUCGACAGGAGGC [CL-4RNV616]", 7.05),
]

* * *

- experimentalTarget: EGFR on the cell surface (Huh-7, U87MG, MDA-MB-231) (human) (UniProt P00533)
- measurementDescription: flow cytometry
- conditionsUsed: Huh-7 cells, 2'-OMe on U, G, C, all A (positions 8, 14, 19, 21, 24) are DNA, Binding buffer: serum-free DMEM + 100 ug/mL tRNA, aptamers denatured 95 C 5 min, snap cooled on ice 10 min, ELONA 1 h (temperature not given)

# sequenceRecord, experimentalTarget, Kd / nM
data = [
    ("UGCUUUGAUGUCGAUUCGACAGGAGGC [CL-4RNV616]", "EGFR on the cell surface (Huh-7, U87MG, MDA-MB-231) (human) (UniProt P00533)", 71.2),
]

* * *

- experimentalTarget: EGFR on the cell surface (Huh-7, U87MG, MDA-MB-231) (human) (UniProt P00533)
- measurementDescription: flow cytometry
- conditionsUsed: U87MG cells, 2'-OMe on U, G, C, all A (positions 8, 14, 19, 21, 24) are DNA, Binding buffer: serum-free DMEM + 100 ug/mL tRNA, aptamers denatured 95 C 5 min, snap cooled on ice 10 min, ELONA 1 h (temperature not given)

# sequenceRecord, Kd, nM
measured = [
    ("UGCUUUGAUGUCGAUUCGACAGGAGGC [CL-4RNV616]", 112),
]

Values compiled from paper PMC6801465.
